Listing: human MASP1 IC50 of selected binders
Biological target: T1, recombinant human MASP1 active protease (amino acids 297-699, C-terminal His Tag) (human, UniProt P48740 297-699)
T1 sequence: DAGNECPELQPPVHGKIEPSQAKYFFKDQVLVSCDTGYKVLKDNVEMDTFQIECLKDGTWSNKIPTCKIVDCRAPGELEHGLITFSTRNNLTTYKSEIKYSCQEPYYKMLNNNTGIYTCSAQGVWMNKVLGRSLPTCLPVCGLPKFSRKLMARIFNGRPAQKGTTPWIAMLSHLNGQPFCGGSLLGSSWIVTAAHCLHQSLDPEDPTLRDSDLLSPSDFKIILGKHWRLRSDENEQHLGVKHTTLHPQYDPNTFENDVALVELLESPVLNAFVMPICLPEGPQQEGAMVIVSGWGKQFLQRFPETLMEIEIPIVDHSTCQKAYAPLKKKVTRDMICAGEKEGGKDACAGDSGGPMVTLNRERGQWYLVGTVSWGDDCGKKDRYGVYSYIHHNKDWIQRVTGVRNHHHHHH
Test: cell-based or functional assay
Numbered stars: 1 amine (or outer) side, 2 acyl side, 3 side chain; on linkers, the order of the positions; unused ones are H or OH. Bridge positions count the residues as written; N and C are the ends. Square brackets hold non-standard residues; d marks the D form. Primed or numbered codes have the meaning given here. Ends that are not written are not given here. * marks the point of attachment. Tranexamic″ = tranexamic acid, NC[C@H]1CC[C@@H](C(=O)*)CC1; NH(CH2CH2O)5CH2CO = O=C(COCCOCCOCCOCCOCCN[*:1])[*:2]; PEG7 = NCCOCCOCCOCCOCCOCCOCCOCCC(=O)O; tBuAla = CC(C)(C)C[C@H](N)C(=O)O; Pen = CC(C)(S)[C@H](N)C(=O)O; Dap = NC[C@H](N)C(=O)O; Sar = CNCC(=O)O

{"binder": "{Tranexamic″}-ICSRS[tBuAla]PPI[Pen]IP-{NH(CH2CH2O)5CH2CO-NH2} (disulfide 2-10; SMILES CC[C@H](C)[C@@H]1NC(=O)[C@@H]2CCCN2C(=O)[C@@H]2CCCN2C(=O)[C@H](CC(C)(C)C)NC(=O)[C@H](CO)NC(=O)[C@H](CCCNC(=N)N)NC(=O)[C@H](CO)NC(=O)[C@@H](NC(=O)[C@@H](NC(=O)[C@H]2CC[C@@H](CN)CC2)[C@@H](C)CC)CSSC(C)(C)[C@@H](C(=O)N[C@H](C(=O)N2CCC[C@H]2C(=O)NCCOCCOCCOCCOCCOCC(N)=O)[C@@H](C)CC)NC1=O) [Example 424: (Tranexamic)-IC+SRS-((tBu)A)-PPI-(Pen)+IP-(PEG5-CH2CO2H (18 atoms))-NH2]", "human MASP1 IC50": "6.6 nM"}
{"binder": "{Tranexamic″}-ICSRS[tBuAla]PPI[Pen]IP-{PEG7-NH2} (disulfide 2-10; SMILES CC[C@H](C)[C@@H]1NC(=O)[C@@H]2CCCN2C(=O)[C@@H]2CCCN2C(=O)[C@H](CC(C)(C)C)NC(=O)[C@H](CO)NC(=O)[C@H](CCCNC(=N)N)NC(=O)[C@H](CO)NC(=O)[C@@H](NC(=O)[C@@H](NC(=O)[C@H]2CC[C@@H](CN)CC2)[C@@H](C)CC)CSSC(C)(C)[C@@H](C(=O)N[C@H](C(=O)N2CCC[C@H]2C(=O)NCCOCCOCCOCCOCCOCCOCCOCCC(N)=O)[C@@H](C)CC)NC1=O) [Example 426: (Tranexamic)-IC+SRS-((tBu)A)-PPI-(Pen)+IP-(PEG7(25 atoms))-NH2]", "human MASP1 IC50": "9.1 nM"}
{"binder": "[Sar]ICSR[Dap]LPPICIPD-OH (disulfide 3-11; N-terminus assumed; SMILES CC[C@H](C)[C@H](NC(=O)CNC)C(=O)N[C@H]1CSSC[C@@H](C(=O)N[C@H](C(=O)N2CCC[C@H]2C(=O)N[C@@H](CC(=O)O)C(=O)O)[C@@H](C)CC)NC(=O)[C@H]([C@@H](C)CC)NC(=O)[C@@H]2CCCN2C(=O)[C@@H]2CCCN2C(=O)[C@H](CC(C)C)NC(=O)[C@H](CN)NC(=O)[C@H](CCCNC(=N)N)NC(=O)[C@H](CO)NC1=O) [Example 413: ((N-Me)G)-IC+SR-(Dap)-LPPIC+IPD-OH]", "human MASP1 IC50": "78 nM"}

The reported measurements were obtained from patent US20210246166A1.
